Provenance of the data: ChEMBL document CHEMBL4011639

Assay: AUClast in Beagle dog at 150 mg/kg, administered via oral gavage measured up to 24 hrs post dose by LC/MS/MS analysis
Assay type: ADME, organism-based, Canis lupus familiaris
Parameters: dose 150 mg/kg, time < 24 hr, route oral
Conditions: in vivo
observable: AUC(0-t) at 24 h (ng·h/mL)
Express it in ng·h/mL; write the number only.

Q. Param item = CCCC(=O)Nc1ccn([C@@H]2O[C@H](CO[P@@](=O)(N[C@@H](C)C(=O)OC(C)C)Oc3ccccc3)[C@@H](O)[C@@]2(C)F)c(=O)n1 ; retrieve measured AUC(0-t) at 24 h.
A. 248

###

Experiment: Acute toxicity in ICR mouse administered as a single dose via oral gavage and observed over 14 days
Conditions: in vivo
observable: NOAEL at 336 h

Q. Fill in: NOAEL at 336 h of CCCC(=O)Nc1ccn([C@@H]2O[C@H](CO[P@@](=O)(N[C@@H](C)C(=O)OC(C)C)Oc3ccccc3)[C@@H](O)[C@@]2(C)F)c(=O)n1 is ___
A. > 1800 mg/kg

###

Tested on: Huh-7
Experiment: Cytotoxicity against human HuH7 cells assessed as reduction in cell viability up to 100 uM after 72 hrs by Cell Titer-Fluor Cell assay
Type: cell-based
Details: huh-7, 72 h
observable: Activity

>>> reported_value("CC(C)OC(=O)[C@H](C)N[P@](=O)(OC[C@H]1O[C@@H](n2ccc(NC(=O)c3ccccc3)nc2=O)[C@](C)(F)[C@@H]1O)Oc1ccccc1")
"Non-Toxic"
>>> reported_value("CCCC(CCC)C(=O)Nc1ccn([C@@H]2O[C@H](CO[P@@](=O)(N[C@@H](C)C(=O)OC(C)C)Oc3ccccc3)[C@@H](O)[C@@]2(C)F)c(=O)n1")
"Non-Toxic"
>>> reported_value("CCOC(=O)Nc1ccn([C@@H]2O[C@H](CO[P@@](=O)(N[C@@H](C)C(=O)OC(C)C)Oc3ccccc3)[C@@H](O)[C@@]2(C)F)c(=O)n1")
"Non-Toxic"

###

Test: Half life in Beagle dog at 150 mg/kg, administered via oral gavage measured up to 24 hrs post dose by LC/MS/MS analysis
Assay type: ADME, organism-based, Canis lupus familiaris
Settings: in vivo
observable: half-life

Q. What does the data say about its half-life? Entry: CCCC(=O)Nc1ccn([C@@H]2O[C@H](CO[P@@](=O)(N[C@@H](C)C(=O)OC(C)C)Oc3ccccc3)[C@@H](O)[C@@]2(C)F)c(=O)n1
A. 14.2 h
